- Test system: sodium monoiodoacetate (MIA)-induced model rats
- METHOD: Analgesic effect on sodium monoiodoacetate-induced model rats (right hind limb weight load ratio)
- Assay type: in vivo, rat
- STATED_CONDITIONS: day 24, test substance oral twice a day over 10 days, 3 hours after last administration, experiment with morphine as positive control (Table 8)
I'd appreciate it if you marked entries 1 (yes) when Percent improvement (%) is lower than 60% and 0 (no) when it is not.

Input: In plain terms, does `Nc1ncc(F)cc1-c1ccc(Oc2ncc(NC(=O)Nc3cc(C(F)(F)F)ccc3-c3cccnc3)cn2)cc1` come in under 60% for Percent improvement (%)?
Output: 1 (yes)

Input: In plain terms, does `Nc1ncc(Cl)cc1-c1ccc(Oc2ncc(NC(=O)Nc3cc(C(F)(F)F)ccc3-n3cc(Cl)cn3)cn2)cc1` come in under 60% for Percent improvement (%)?
Output: 1 (yes)

Input: In plain terms, does `Nc1ncc(C(F)(F)F)cc1-c1ccc(Oc2ncc(NC(=O)Nc3cc(C(F)(F)F)ccc3-n3cc(Cl)cn3)cn2)cc1` come in under 60% for Percent improvement (%)?
Output: 1 (yes)

Input: In plain terms, does `CS(=O)(=O)c1ccc(C(F)(F)F)cc1NC(=O)Nc1cnc(Oc2ccc(-c3cc(C(F)(F)F)cnc3N)cc2)nc1` come in under 60% for Percent improvement (%)?
Output: 1 (yes)

Input: In plain terms, does `CS(=O)(=O)c1ccc(C(F)(F)F)cc1NC(=O)Nc1cnc(Oc2ccc(-c3cc(Cl)cnc3N)cc2)nc1` come in under 60% for Percent improvement (%)?
Output: 1 (yes)

Input: In plain terms, does `Nc1ncc(Cl)cc1-c1ccc(Oc2ncc(NC(=O)Nc3cc(C(F)(F)F)ccc3-c3ccccc3)cn2)cc1` come in under 60% for Percent improvement (%)?
Output: 0 (no)

Input: In plain terms, does `Nc1ncc(Cl)cc1-c1ccc(Oc2ncc(NC(=O)Nc3ccc(C(F)(F)F)cc3C(F)(F)F)cn2)cc1` come in under 60% for Percent improvement (%)?
Output: 1 (yes)

Input: In plain terms, does `CN(C)c1ccn2ncc(-c3ccc(Oc4ncc(NC(=O)Nc5cc(C(F)(F)F)ccc5-c5ccnn5C)cn4)cc3)c2n1` come in under 60% for Percent improvement (%)?
Output: 0 (no)

Input: In plain terms, does `CN(C)c1ccn2ncc(-c3ccc(Oc4ncc(NC(=O)Nc5cc(C(F)(F)F)ccc5-c5cccnc5)cn4)cc3)c2n1` come in under 60% for Percent improvement (%)?
Output: 0 (no)

Input: In plain terms, does `Cc1cccc(-c2ccc(C(F)(F)F)cc2NC(=O)Nc2cnc(Oc3ccc(-c4cnn5ccc(N(C)C)nc45)cc3)nc2)c1` come in under 60% for Percent improvement (%)?
Output: 0 (no)
